Recorded selectivity ratio by entry
Assay: Selectivity index, ratio of ED50 for human COL1 cells to ED50 for chloroquine-sensitive Plasmodium falciparum D6
Type: toxicity, cell-based
Conditions: read-out: Ratio ED50
Lab note: write the figure by itself, no unit.

Examples with their reported selectivity ratio follow.
- compound: "COc1ccc2cc1Oc1ccc(cc1)C[C@H]1c3cc(c(OC)cc3CCN1C)Oc1c(OC)c(OC)cc3c1[C@@H](C2)N(C)CC3"
  selectivity ratio: 64
- compound: "COc1ccc2cc1Oc1ccc(cc1)C[C@H]1c3cc(c(OC)cc3CCN1C)Oc1c(OC)c(OC)cc3c1[C@@H](C2)NCC3"
  selectivity ratio: 115
- compound: "OC(c1cc(C(F)(F)F)nc2c(C(F)(F)F)cccc12)C1CCCCN1 (centres undefined) [MEFLOQUINE]"
  selectivity ratio: 111
- compound: "COc1ccc2cc1Oc1ccc(cc1)C[C@H]1c3c(cc(OC)c(O)c3Oc3cc4c(cc3OC)CCN[C@@H]4C2)CCN1C"
  selectivity ratio: 164
- compound: "COc1ccc2cc1Oc1ccc(cc1)C[C@H]1c3c(cc(OC)c4c3Oc3cc5c(cc3O4)CCN=C5C2)CCN1C"
  selectivity ratio: 16

Let me know recorded selectivity ratio for COc1ccc2cc1Oc1ccc(cc1)C[C@H]1c3c(cc(OC)c(O)c3Oc3cc4c(cc3OC)CCN(C)[C@@H]4C2)CCN1C [HOMOAROMOLINE] , thanks.
96

Let me know recorded selectivity ratio for COc1ccc2cc1Oc1ccc(cc1)C[C@H]1c3c(cc(OC)c4c3Oc3cc5c(cc3O4)CCN(C)[C@@H]5C2)CCN1C , thanks.
37

Let me know recorded selectivity ratio for COc1ccc2cc1Oc1ccc(cc1)C[C@H]1c3cc(c(OC)cc3CCN1C)Oc1c(O)c(OC)cc3c1[C@@H](C2)NCC3 , thanks.
69

Let me know recorded selectivity ratio for COc1ccc2cc1Oc1ccc(cc1)C[C@H]1c3cc(c(OC)cc3CCN1C)Oc1c(O)c(OC)cc3c1[C@@H](C2)N(C)CC3 , thanks.
92

Let me know recorded selectivity ratio for COc1ccc2cc1Oc1ccc(cc1)C[C@H]1c3c(cc4c(c3Oc3cc5c(cc3OC)CCN(C)[C@@H]5C2)OCO4)CCN1C [CEPHARANTHINE] , thanks.
64

Let me know recorded selectivity ratio for COc1ccc2cc1Oc1ccc(cc1)C[C@H]1c3c(cc4c(c3Oc3cc5c(cc3OC)CCN[C@@H]5C2)OCO4)CCN1C , thanks.
67

Let me know recorded selectivity ratio for COc1ccc2cc1Oc1ccc(cc1)C[C@H]1c3c(cc(OC)c(OC)c3Oc3cc4c(cc3OC)CCN(C)[C@@H]4C2)CCN1C [OBABERINE] , thanks.
47

Let me know recorded selectivity ratio for COc1ccc2cc1Oc1ccc(cc1)C[C@H]1c3c(cc(OC)c(OC)c3Oc3cc4c(cc3OC)CCN[C@@H]4C2)CCN1C , thanks.
120
